Hey, just so you know, these numbers are from PubChem BioAssay AID328.

Listed here: items and their measured T/C.
system: BDF1 mice, P388 leukemia ip, median survival T/C; assay: NCI In Vivo Anticancer Drug Screen. Data for tumor model P388 Leukemia (intraperitoneal) in B6D2F1 (BDF1) mice; settings: endpoint: median survival time; dose: 200.0 mg/kg/injection; schedule: Q01DX009 (ip); vehicle: Klucel (hydroxypropylcellulose) (HPC); higher = longer survival
Toxic doses and inconclusive results are not listed.
Quantity Measured: T/C

INSERT INTO assay_data (compound, value_reported) VALUES
  ('COc1cccc(CC(=O)C(=O)O)c1', '90 % of control'),
  ('Nc1nc(=S)[nH]c(C(=O)O)c1Cc1ccccc1', '120 % of control'),
  ('COC(C)C(O)(C(N)=O)C(C)C (stereo not given)', '86 % of control'),
  ('O=C(NCCCl)NC1c2ccccc2CCc2ccccc21', '100 % of control'),
  ('C[C@H]1CC2=CC(=O)CC[C@]2(C)[C@H]2CC[C@@]3(C)[C@@H](CC[C@]3(C)O)[C@H]12', '105 % of control'),
  ('COc1ccc(C(=O)CC(=O)CC(=O)c2ccccc2)cc1', '86 % of control'),
  ('BrC1C2CC3C(C2)C13 (stereo not given)', '86 % of control'),
  ('CC[C@H](CC[C@@H](C)[C@H]1CC[C@H]2[C@@H]3CC=C4C[C@@H](OC(=O)CSC(CC(=O)O)C(=O)O)CC[C@]4(C)[C@H]3CC[C@]12C)C(C)C (stereo not given in full)', '104 % of control'),
  ('CC(O)c1ccc(-c2ccccc2)cc1 (stereo not given)', '105 % of control'),
  ('COc1ccc(OC)c(NC(=O)Nc2c(C)n(C)n(-c3ccccc3)c2=O)c1', '90 % of control'),
  ('C[C@]12CC[C@@H]3c4ccc(O)cc4CC[C@H]3[C@@H]1C[C@H](O)C2', '95 % of control'),
  ('Cc1ccc(N=Cc2ccccc2)cc1', '100 % of control'),
  ('Nc1n[nH]c(=S)n1-c1ccccc1', '91 % of control'),
  ('CCCCCCCCC(=O)N1CC1', '86 % of control'),
  ('Cc1nnc(NC(=O)CCl)s1', '111 % of control');
